# System: SR leukemia
# Procedure text: NCI tumour cell line growth inhibition, 48 h
TGI values, listed per item
Express your answer in µM, writing the number without its unit.

Record excerpt, results attached:
# Compound, TGI / µM
records = [
    ("CCCCOP1(=O)C=C(C)C(=C(Cl)Cl)C(C)=C1 (stereo unspecified)", 29.9),
    ("c1ccc2c(c1)nc(NC1CCCC1)c1[nH]c(C3CCCC3)nc12", 63.5),
]

We now examine a further compound.
Which measured TGI value corresponds to COc1ccc2nc3cc(Cl)ccc3c(NCCCNCCC(C)O)c2c1 (stereo unspecified) ?
1.74

----------
# System: 786-0 renal
# Procedure text: NCI tumour cell line growth inhibition, 48 h
Collected GI50 values appear next to each entry.

The following compounds have reported results that may help.
# Compound, Study system, Observed
records = [
    ("COc1cc(/C=C2\\CN(C)C/C(=C\\c3cc(CN4CCCCC4)c(O)c(OC)c3)C2=O)cc(CN2CCCCC2)c1O", "786-0 renal", "3.92 µM"),
    ("Cc1cc(Cc2cc(C)cc(C(C)(C)C)c2O)c(O)c(C(C)(C)C)c1", "786-0 renal", "11 µM"),
]

Requested read-out: GI50. Entry: Cc1c(C)[n+](=O)c(C)c(C)n1[O-]
> 100 µM

Fill blank: measured GI50 of the compound O=C(c1ccco1)c1c(C(F)(F)F)n([O-])c2ccccc2[n+]1=O is ____.
0.42 µM

Returns the measured GI50 for the input compound. Input: CO[C@@H]1CC(=O)C2(CC(=O)O[C@@H]2/C=C(\C)CCC=C(C)C)C[C@@H]1O (stereo partly specified)
0.761 µM

Which GI50 value is on record for N#CC1=C(N)NC(=O)NC12Nc1ccccc1S2 (stereo unspecified) ?
19.4 µM

GI50 for Cc1ccc2c(O)c(O)cc(NC(C)CCCN)c2n1 (stereo unspecified) ?
> 100 µM

Which GI50 is reported for this compound? COc1ccc(-n2c3c(c4c(CN5CCOCC5)c(O)ccc42)CCc2ccccc2C3=O)cc1
75.8 µM

Entry C=CCC1(O)c2cccc(NCCO)c2C(=O)c2c(NCCO)cccc21 : reported GI50 = ?
> 100 µM

Query: GI50; subject: CCN(CCCl)CCCNc1c2ccccc2nc2ccc(OC)cc12
102 µM

Recorded GI50 of COc1cc(-c2nc3sc4c(c3c(=O)[nH]2)CCCCCC4)cc(OC)c1OC , please.
1.46 µM
